Assay: Drug concentration in CD-1 mouse brain at 3 mg/kg, ip administered for 90 mins
Format: ADME, organism-based
Conditions: read-out: Ct
Recorded Metric: concentration at 1.5 h (ng/g)
Please reply with the bare figure in ng/g and do not write the unit itself.

According to the records, this compound C[C@H](CC[C@](C)(O)C(F)(F)F)[C@H]1CC[C@H]2[C@@H]3CC=C4C[C@@](C)(O)CC[C@]4(C)[C@H]3CC[C@]12C displays concentration at 1.5 h of 490

* * *

Biological target: Voltage-gated inwardly rectifying potassium channel KCNH2 (Homo sapiens)
Sequence (Q12809 whole entry): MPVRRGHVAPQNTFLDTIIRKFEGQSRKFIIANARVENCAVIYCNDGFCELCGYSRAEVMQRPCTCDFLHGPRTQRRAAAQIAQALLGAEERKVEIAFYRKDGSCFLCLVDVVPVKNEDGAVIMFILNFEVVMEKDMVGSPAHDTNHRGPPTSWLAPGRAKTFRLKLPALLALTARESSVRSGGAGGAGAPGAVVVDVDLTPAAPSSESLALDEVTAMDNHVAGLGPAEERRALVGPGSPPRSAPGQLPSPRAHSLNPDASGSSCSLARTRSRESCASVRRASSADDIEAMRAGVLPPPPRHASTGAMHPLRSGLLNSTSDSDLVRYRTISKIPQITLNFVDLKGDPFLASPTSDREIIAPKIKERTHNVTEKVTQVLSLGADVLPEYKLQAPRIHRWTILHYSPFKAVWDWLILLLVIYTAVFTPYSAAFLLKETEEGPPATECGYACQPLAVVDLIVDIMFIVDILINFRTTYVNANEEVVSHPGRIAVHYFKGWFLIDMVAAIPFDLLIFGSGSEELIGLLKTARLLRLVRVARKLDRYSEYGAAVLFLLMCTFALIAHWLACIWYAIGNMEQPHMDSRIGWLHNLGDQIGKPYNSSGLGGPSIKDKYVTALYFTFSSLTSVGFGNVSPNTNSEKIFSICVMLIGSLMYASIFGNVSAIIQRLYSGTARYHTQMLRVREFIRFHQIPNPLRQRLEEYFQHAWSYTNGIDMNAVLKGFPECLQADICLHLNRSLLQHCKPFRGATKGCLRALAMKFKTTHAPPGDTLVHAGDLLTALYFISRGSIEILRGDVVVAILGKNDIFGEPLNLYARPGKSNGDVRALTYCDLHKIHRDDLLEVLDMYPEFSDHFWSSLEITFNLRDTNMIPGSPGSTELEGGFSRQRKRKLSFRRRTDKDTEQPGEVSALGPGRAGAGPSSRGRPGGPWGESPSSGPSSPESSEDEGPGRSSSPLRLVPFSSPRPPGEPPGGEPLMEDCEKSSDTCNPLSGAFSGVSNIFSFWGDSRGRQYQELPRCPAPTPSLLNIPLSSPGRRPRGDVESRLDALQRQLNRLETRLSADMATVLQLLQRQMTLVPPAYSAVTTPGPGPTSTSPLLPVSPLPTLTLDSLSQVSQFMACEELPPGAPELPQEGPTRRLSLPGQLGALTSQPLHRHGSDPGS
pIC50: −log10 of the molar value.
Recorded Metric: pIC50

According to the records, this compound C[C@H](CC[C@](C)(O)C(F)(F)F)[C@H]1CC[C@H]2[C@@H]3CC=C4C[C@@](C)(O)CC[C@]4(C)[C@H]3CC[C@]12C displays pIC50 of < 4.52

* * *

Assay: Plasma protein binding in dog after 15 mins by equilibrium dialysis method
Format: ADME, cell-free, Canis lupus familiaris
Conditions: read-out: PPB (converted)
Recorded Metric: fraction unbound at 0.25 h
In your answer, state the number alone without any accompanying words.

According to the records, this compound C[C@H](CC[C@](C)(O)C(F)(F)F)[C@H]1CC[C@H]2[C@@H]3CC=C4C[C@@](C)(O)CC[C@]4(C)[C@H]3CC[C@]12C displays fraction unbound at 0.25 h of 0.028

* * *

Molecular target: Potassium/sodium hyperpolarization-activated cyclic nucleotide-gated channel 2 (Homo sapiens)
Sequence (Q9UL51 whole entry): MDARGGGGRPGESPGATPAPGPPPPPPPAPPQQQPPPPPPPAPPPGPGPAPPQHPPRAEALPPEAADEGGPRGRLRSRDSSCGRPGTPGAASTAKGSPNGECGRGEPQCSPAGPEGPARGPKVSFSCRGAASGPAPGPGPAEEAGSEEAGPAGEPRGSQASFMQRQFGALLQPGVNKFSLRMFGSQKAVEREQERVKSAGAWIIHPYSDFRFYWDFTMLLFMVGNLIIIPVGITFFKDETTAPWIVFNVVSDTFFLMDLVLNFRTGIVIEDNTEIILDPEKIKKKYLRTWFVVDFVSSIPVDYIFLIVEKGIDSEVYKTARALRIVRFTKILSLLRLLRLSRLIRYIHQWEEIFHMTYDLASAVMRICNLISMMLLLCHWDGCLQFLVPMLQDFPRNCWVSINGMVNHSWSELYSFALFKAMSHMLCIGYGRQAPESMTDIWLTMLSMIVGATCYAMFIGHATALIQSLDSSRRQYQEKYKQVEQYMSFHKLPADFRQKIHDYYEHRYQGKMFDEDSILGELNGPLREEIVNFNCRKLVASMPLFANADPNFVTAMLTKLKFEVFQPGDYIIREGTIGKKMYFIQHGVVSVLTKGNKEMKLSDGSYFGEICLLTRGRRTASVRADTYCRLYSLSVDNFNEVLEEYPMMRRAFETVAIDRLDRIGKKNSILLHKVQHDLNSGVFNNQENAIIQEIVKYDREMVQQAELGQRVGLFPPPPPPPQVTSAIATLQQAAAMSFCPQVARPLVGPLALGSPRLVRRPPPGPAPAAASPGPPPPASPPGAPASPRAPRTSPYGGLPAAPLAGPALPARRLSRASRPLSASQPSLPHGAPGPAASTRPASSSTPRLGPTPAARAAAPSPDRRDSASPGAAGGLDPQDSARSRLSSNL
Assay: Inhibition of HCN2 (unknown origin) by patch clamp method
pIC50: −log10 of the molar value.
Recorded Metric: pIC50

According to the records, this compound C[C@H](CC[C@](C)(O)C(F)(F)F)[C@H]1CC[C@H]2[C@@H]3CC=C4C[C@@](C)(O)CC[C@]4(C)[C@H]3CC[C@]12C displays pIC50 of < 4.52

* * *

Assay: Metabolic stability in dog liver microsomes assessed as intrinsic clearance at 10 uM preincubated for 5 mins followed by NADPH addition and measured upto 65 mins by LC-MS/MS analysis
Assay type: ADME, Canis lupus familiaris, Microsome
Conditions: time < 70 min, read-out: CLH
Assign microsomal CLint at 10 µM to each entry below.
Please reply with the bare figure in µL/min/mg and do not write the unit itself.

According to the records, this compound C[C@H](CCC(C)(C)O)[C@H]1CC[C@H]2[C@@H]3CC=C4C[C@@](C)(O)CC[C@]4(C)[C@H]3CC[C@]12C displays microsomal CLint at 10 µM of 16

According to the records, this compound C[C@H](CC[C@](C)(O)C(F)(F)F)[C@H]1CC[C@H]2[C@@H]3CC=C4C[C@@](C)(O)CC[C@]4(C)[C@H]3CC[C@]12C [DALZANEMDOR] displays microsomal CLint at 10 µM of 4.7

* * *

Assign solubility at 1 h to each entry below.
Experiment: Aqueous solubility of compound in PBS incubated for 1 hr under shaking condition by HPLC-MS/MS analysis
Type: physicochemical
Please reply with the bare figure in µM and do not write the unit itself.

According to the records, this molecule C[C@H](CC[C@](C)(O)C(F)(F)F)[C@H]1CC[C@H]2[C@@H]3CC=C4C[C@@](C)(O)CC[C@]4(C)[C@H]3CC[C@]12C displays solubility at 1 h of 2.2

According to the records, this molecule C[C@H](CCC(C)(C)O)[C@H]1CC[C@H]2[C@@H]3CC=C4C[C@@](C)(O)CC[C@]4(C)[C@H]3CC[C@]12C displays solubility at 1 h of 0.62

Measured values drawn from ChEMBL document CHEMBL5131569 for this set.
